tested system: rat brain farnesyl protein transferase (Rattus norvegicus, UniProt Q02293+Q04631)
Construct: 40-fold purified rat brain farnesyl protein transferase; from tissue; host or cells: rat brain
protocol summary: Farnesyl Protein Transferase Inhibition (PFT/FPT inhibitory activity)
Type: biochemical
test context: Hepes, without 5 mM phosphate; read-out: Farnesyl Protein Transferase Inhibition Hepes IC50
Measured IC50 accompanies every entry in the list below.

compound | tested system | result operator | IC50 (µM)
Clc1ccc2c(c1)N=C(NCCc1cccnc1)c1ccccc1N2 [Example 3] | rat brain farnesyl protein transferase (Rattus norvegicus, UniProt Q02293+Q04631) | = | 36
c1cncc(CNC2=Nc3ccccc3Nc3ccccc32)c1 [Example 7] | rat brain farnesyl protein transferase (Rattus norvegicus, UniProt Q02293+Q04631) | = | 23
c1ccc(COc2ccc3c(c2)N=C(NCc2cccnc2)c2ccccc2N3)cc1 [Example 12] | rat brain farnesyl protein transferase (Rattus norvegicus, UniProt Q02293+Q04631) | > | 50
COc1cc2c(cc1OC)C(NCc1cccnc1)=Nc1cc(Cl)c(Cl)cc1N2 [Example 13] | rat brain farnesyl protein transferase (Rattus norvegicus, UniProt Q02293+Q04631) | = | 30
O=S1(=O)c2ccc(Cl)cc2N=C(NCc2cccnc2)c2ccccc21 [Example 17] | rat brain farnesyl protein transferase (Rattus norvegicus, UniProt Q02293+Q04631) | = | 5
Brc1ccc2c(c1)N=C(NCc1cccnc1)c1ccccc1N2 [Example 10] | rat brain farnesyl protein transferase (Rattus norvegicus, UniProt Q02293+Q04631) | = | 6
Clc1ccc2c(c1)N=C(NCc1cccnc1)c1ccccc1S2 [Example 16] | rat brain farnesyl protein transferase (Rattus norvegicus, UniProt Q02293+Q04631) | = | 9.8
Clc1ccc2c(c1)N=C(NCc1cccnc1)c1ccccc1N2 [Example 1] | rat brain farnesyl protein transferase (Rattus norvegicus, UniProt Q02293+Q04631) | = | 3.7
Clc1ccc2c(c1)Nc1ccccc1C(NCc1cccnc1)=N2 [Example 6] | rat brain farnesyl protein transferase (Rattus norvegicus, UniProt Q02293+Q04631) | = | 5.5
Cc1ccc2c(c1)N=C(NCc1cccnc1)c1ccccc1N2 [Example 8] | rat brain farnesyl protein transferase (Rattus norvegicus, UniProt Q02293+Q04631) | = | 24

###

tested system: rat brain farnesyl protein transferase (Rattus norvegicus, UniProt Q02293+Q04631)
Construct: 40-fold purified rat brain farnesyl protein transferase; from tissue; host or cells: rat brain
protocol summary: Farnesyl Protein Transferase Inhibition (PFT/FPT inhibitory activity)
Type: biochemical
test context: Hepes with 5 mM PO4^-3; read-out: Farnesyl Protein Transferase Inhibition Hepes/5 mM PO4^-3 IC50
The threshold is 10 µM. Values of IC50 beneath it are tagged t; values meeting or exceeding it are tagged f.

molecule | label
c1cncc(CNC2=Nc3ccccc3Nc3ccccc32)c1 [Example 7] | f
Brc1ccc2c(c1)N=C(NCc1cccnc1)c1ccccc1N2 [Example 10] | f
c1ccc(COc2ccc3c(c2)N=C(NCc2cccnc2)c2ccccc2N3)cc1 [Example 12] | f
Clc1ccc2c(c1)Nc1ccccc1C(NCc1cccnc1)=N2 [Example 6] | t
c1cncc(CNC2=Nc3ccccc3Nc3ncccc32)c1 [Example 14] | f
O=S1(=O)c2ccc(Cl)cc2N=C(NCc2cccnc2)c2ccccc21 [Example 17] | t
Clc1ccc2c(c1)N=C(NCc1cccnc1)c1ccccc1S2 [Example 16] | f
Clc1ccc2c(c1)N=C(NCCc1cnc[nH]1)c1ccccc1N2 [Example 2] | t
Cc1ccc2c(c1)N=C(NCc1cccnc1)c1ccccc1N2 [Example 8] | f
COc1cc2c(cc1OC)C(NCc1cccnc1)=Nc1cc(Cl)c(Cl)cc1N2 [Example 13] | f
COc1ccc2c(c1)N=C(NCc1cccnc1)c1ccccc1N2 [Example 9] | f
Clc1ccc2c(c1)N=C(NCCc1cccnc1)c1ccccc1N2 [Example 3] | f
Clc1ccc2c(c1)N=C(NCc1cccnc1)c1ccccc1N2 [Example 1] | t
Clc1cc2c(cc1Cl)Nc1ccccc1C(NCc1cccnc1)=N2 [Example 11] | t
Clc1ccc2c(c1)N=C(NCc1cccnc1)c1ccccc1O2 [Example 18] | f
Clc1ccc2c(c1)N=C(NCCn1ccnc1)c1ccccc1N2 [Example 4] | t
CN1c2ccc(Cl)cc2N=C(NCc2cccnc2)c2ccccc21 [Example 15] | f
Clc1ccc2c(c1)N=C(NCCCn1ccnc1)c1ccccc1N2 [Example 5] | t
